Parameter logD: see the listing below.
experiment: method code SF-AS, from DOI: 10.1515/znb-1972-0211, PMID: 4401834; conditions: pH 7.0
// print number alone

Examples with answers:
CCS(=O)(=O)c1ccc(C(F)(F)F)cc1NN=C(C#N)C(C)=O; 4.22
COC(=O)/C(C#N)=N\Nc1ccc(SC(F)(F)F)cc1; 4.27
COC(=O)/C(C#N)=N\Nc1cc(C(F)(F)F)cc(C(F)(F)F)c1; 5.02
COC(=O)C(C#N)=NNc1cccc(C(F)(F)F)c1; 3.78
COC(=O)C(C#N)=NNc1ccc(S(=O)(=O)C(F)(F)F)cc1; 4.22
CC(=O)C(C#N)=NNc1cc(Cl)cc(Cl)c1; 4.68
CCOC(=O)C(C#N)=NNc1cc(C(F)(F)F)ccc1Cl; 4.45
COC(=O)C(C#N)=NNc1ccccc1; 2.59
COC(=O)C(C#N)=NNc1ccc2c(c1)OC(F)(F)C(F)(F)O2; 4.86
CC(=O)C(C#N)=NNc1ccccc1Cl; 4.01

Reported logD ( CC(C)(C)C(=O)C(C#N)=NNc1ccc2c(c1)OC(F)(F)C(F)(F)O2 ) = 4.96

Reported logD ( CC(=O)C(C#N)=NNc1ccc(Cl)c(Cl)c1 ) = 4.56

Reported logD ( CC(=O)C(C#N)=NNc1ccc(Cl)cc1C ) = 4.28

Reported logD ( CCOC(=O)C(C#N)=NNc1ccccc1Cl ) = 3.38

Reported logD ( CC(=O)C(C#N)=NNc1cccc(Cl)c1 ) = 3.91

Reported logD ( Cc1cc(Cl)ccc1NN=C(C#N)C(=O)C(C)(C)C ) = 4.31

----------
assay: method code SF, from DOI: 10.1515/znb-1972-0211, PMID: 4401834; conditions: pH 7.0
Test Readout: logD

Reported logD ( COC(=O)/C(C#N)=N\Nc1cc(Cl)c(Cl)cc1Cl ) = 5.15

----------
experiment: method code SF-AS, from DOI: 10.1515/znb-1972-0211, PMID: 4401834; conditions: pH 7.0
Parameter logD: see the listing below.
// print number alone

COC(=O)/C(C#N)=N\Nc1cc(Cl)cc(Cl)c1; 4.5
CC(C)(C)C(=O)C(C#N)=NNc1cccc(Cl)c1; 4.62
CCOC(=O)/C(C#N)=N\Nc1cc(Cl)c(Cl)cc1Cl; 5.21
CC(=O)C(C#N)=NNc1ccc(Cl)cc1; 4.13
CC(C)(C)C(=O)C(C#N)=NNc1cc(C(F)(F)F)cc(C(F)(F)F)c1; 5.44
CC(=O)C(C#N)=NNc1ccc(SC(F)(F)F)cc1; 5.04

Reported logD ( COC(=O)C(C#N)=NNc1cc(C(F)(F)F)ccc1Cl ) = 4.42

----------
experiment: method code SF-AS, from DOI: 10.1515/znb-1972-0211, PMID: 4401834; conditions: pH 7.0
Parameter logD: see the listing below.
// print number alone

Examples with answers:
CCOC(=O)/C(C#N)=N\Nc1ccc(Cl)c(C(F)(F)F)c1; 4.86
COC(=O)C(C#N)=NNc1cc(C#N)ccc1C#N; 2.81
COC(=O)C(C#N)=NNc1ccccc1C(F)(F)F; 3.72

Reported logD ( COC(=O)/C(C#N)=N\Nc1cc(Cl)c(Cl)c(Cl)c1 ) = 5.22

Reported logD ( CCOC(=O)/C(C#N)=N\Nc1cccc(Cl)c1 ) = 3.94

Reported logD ( COC(=O)/C(C#N)=N\Nc1cccc(Cl)c1 ) = 3.56

Reported logD ( CC(=O)C(C#N)=NNc1ccc2c(c1)OC(F)(F)C(F)(F)O2 ) = 5.31
